- Tested on: MDCK
- TEST: MDCK BBB Assay
- Type: in vitro ADME
- SETUP CONDITIONS: MDCK BBB assay
Reported % Permeable values for the following compounds.
Number in %, nothing else.

Illustrative cases are given below, each with its answer.
>>> readout_number("Clc1ccc(-n2c(-c3ccccc3Cl)nc3c(N4CCC(Nc5ccccn5)CC4)ncnc32)cc1")
0
>>> readout_number("O=S(=O)(NC1CCN(c2ncnc3c2nc(-c2ccccc2Cl)n3-c2ccc(Cl)cc2)CC1)c1ccc(F)cc1")
0
>>> readout_number("Clc1ccc(-n2c(-c3ccccc3Cl)nc3c(N4CCC(Nc5ccccc5)CC4)ncnc32)cc1")
0
>>> readout_number("N#Cc1ccc(N2CCN(c3ncnc4c3nc(-c3ccccc3Cl)n4-c3ccc(Cl)cc3)CC2)nc1")
1
>>> readout_number("O=C(Nc1ccccc1F)NC1CCN(c2ncnc3c2nc(-c2ccccc2Cl)n3-c2ccc(Cl)cc2)CC1")
0

# input for lookup
Give % Permeable for `CC(C)CS(=O)(=O)N1CCN(c2ncnc3c2nc(-c2ccccc2Cl)n3-c2ccc(Cl)cc2)CC1`
0

----------
- STUDY TARGET: hCB2 (Homo sapiens, UniProt P34972)
- Sequence (P34972 whole entry): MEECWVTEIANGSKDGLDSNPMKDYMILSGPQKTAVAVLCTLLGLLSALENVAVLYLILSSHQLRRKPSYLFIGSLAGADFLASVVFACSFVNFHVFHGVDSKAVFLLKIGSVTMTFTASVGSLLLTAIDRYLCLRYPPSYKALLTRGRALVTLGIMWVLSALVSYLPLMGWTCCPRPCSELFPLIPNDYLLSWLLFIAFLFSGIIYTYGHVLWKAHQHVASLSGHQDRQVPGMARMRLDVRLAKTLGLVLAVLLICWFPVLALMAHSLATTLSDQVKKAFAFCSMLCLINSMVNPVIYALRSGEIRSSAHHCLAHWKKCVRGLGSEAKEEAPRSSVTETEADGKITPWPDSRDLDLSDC
- TEST: radioligand displacement binding at CB2 ([3H]CP55940, membranes of CHO-K1 cells over-expressing receptor)
Reported pKi values for the following compounds.
In textbook form, pKi equals minus log to base ten of the concentration in mol/L.

>>> readout_number("Cc1ccccc1CN1CCN(c2ncnc3c2nc(-c2ccccc2Cl)n3-c2ccc(Cl)cc2)CC1")
5.90

Specify pKi for `CCCCC(=O)NC1CCN(c2ncnc3c2nc(-c2ccncc2Cl)n3-c2ccc(Cl)cc2)CC1` , system hCB2 (Homo sapiens, UniProt P34972).
5.94

Specify pKi for `O=C(Nc1ccc(OC(F)F)nc1)N1CCN(c2ncnc3c2nc(-c2ccccc2Cl)n3-c2ccc(Cl)cc2)CC1` , system hCB2 (Homo sapiens, UniProt P34972).
4.13

Specify pKi for `O/N=C(\c1ccc(F)cc1)C1CCN(c2ncnc3c2nc(-c2ccccc2Cl)n3-c2ccc(Cl)cc2)CC1` , system hCB2 (Homo sapiens, UniProt P34972).
4.96

----------
- STUDY TARGET: hCB1 (Homo sapiens, UniProt P21554)
- Sequence (P21554 whole entry): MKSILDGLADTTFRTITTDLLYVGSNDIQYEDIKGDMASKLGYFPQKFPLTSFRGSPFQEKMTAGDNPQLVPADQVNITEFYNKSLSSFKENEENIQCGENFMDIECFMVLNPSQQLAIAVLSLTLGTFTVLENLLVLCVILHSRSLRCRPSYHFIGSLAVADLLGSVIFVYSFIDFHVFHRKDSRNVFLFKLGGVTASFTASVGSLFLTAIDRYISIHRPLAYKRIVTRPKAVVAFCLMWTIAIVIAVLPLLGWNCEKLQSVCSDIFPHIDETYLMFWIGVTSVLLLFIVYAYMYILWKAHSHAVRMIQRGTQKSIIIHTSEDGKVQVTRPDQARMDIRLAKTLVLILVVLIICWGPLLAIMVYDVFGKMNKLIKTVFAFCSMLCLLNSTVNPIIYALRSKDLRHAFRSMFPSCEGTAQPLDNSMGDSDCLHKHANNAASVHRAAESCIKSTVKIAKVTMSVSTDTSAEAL
- TEST: radioligand displacement binding at CB1 (membranes of CHO-K1 cells over-expressing receptor)
pKi: −log10 of the molar value.
# label = 1.0 if pKi >= 8 else 0.0

Answered cases to consult:
>>> qualitative_label("O/N=C(\\c1ccc(F)cc1)C1CCN(c2ncnc3c2nc(-c2ccccc2Cl)n3-c2ccc(Cl)cc2)CC1 [Compound 28]")
1.0
>>> qualitative_label("O=C(C1COc2ccccc2O1)N1CCN(c2ncnc3c2nc(-c2ccccc2Cl)n3-c2ccc(Cl)cc2)CC1 (stereo not drawn) [Compound 61]")
1.0
>>> qualitative_label("Clc1ccc(-n2c(-c3ccccc3Cl)nc3c(N4CCC(Nc5ccccn5)CC4)ncnc32)cc1 [Compound 32]")
1.0
>>> qualitative_label("CCCCC(=O)NC1(c2ccccc2)CCN(c2ncnc3c2nc(-c2ccncc2)n3-c2ccc(Cl)cc2)CC1 [Compound 55]")
0.0
>>> qualitative_label("Clc1ccc(-n2c(-c3ccccc3Cl)nc3c(N4CCN(c5ccc(OCc6ccccc6)cc5)CC4)ncnc32)cc1 [Compound 65]")
1.0

Okay, next one:
Please tell me: is the compound O=S(=O)(C1CC1)N1CCN(c2ncnc3c2nc(-c2ccccc2Cl)n3-c2ccc(Cl)cc2)CC1 [Compound 84] at or over 8 in terms of pKi?
1.0
